From: patent US20100093723A1

target: human adenosine A2a receptor (Homo sapiens, UniProt P29274); test: Adenosine A2a Receptor Functional Assay (A2AGAL2); settings: CHO-K1 cells overexpressing human A2a receptor, cAMP inducible beta-galactosidase reporter, 15 nM NECA agonist challenge; read-out: A2AGAL2_v4 Ki
Sequence (P29274 whole entry): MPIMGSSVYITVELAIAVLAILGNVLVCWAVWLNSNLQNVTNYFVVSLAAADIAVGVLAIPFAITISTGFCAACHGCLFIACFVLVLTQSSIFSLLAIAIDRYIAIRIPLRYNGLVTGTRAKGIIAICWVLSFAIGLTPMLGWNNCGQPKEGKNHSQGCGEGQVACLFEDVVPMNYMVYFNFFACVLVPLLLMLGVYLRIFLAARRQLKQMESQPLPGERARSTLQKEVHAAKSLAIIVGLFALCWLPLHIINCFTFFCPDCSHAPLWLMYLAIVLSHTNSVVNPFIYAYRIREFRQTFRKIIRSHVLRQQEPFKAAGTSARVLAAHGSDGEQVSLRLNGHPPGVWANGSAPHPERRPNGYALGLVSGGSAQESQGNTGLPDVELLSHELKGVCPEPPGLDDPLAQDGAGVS
Value kind: Ki (nM)

Prompt: # return recorded Ki for input Nc1nc(-c2ncco2)nc2sc(CCN3CCOCC3)cc12
Completion: 238

Prompt: Tell me Ki reported for C[C@@H]1CCC[C@H](C)N1C[C@@H](O)c1cc2c(N)nc(-c3cccc(C#N)c3)nc2s1
Completion: 195

Prompt: Identify measured Ki corresponding to N#Cc1cccc(-c2nc(N)c3cc(CCN4CCOCC4)sc3n2)c1
Completion: 40.1

(A) Cc1ccc(-c2nc(N)c3cc(CC4CCCCC4)sc3n2)o1
(B) Cc1csc(-c2nc(N)c3cc(CCN4CCOCC4)sc3n2)n1
(C) N#Cc1cccc(-c2nc(N)c3cc([C@H](O)CN4CCOCC4)sc3n2)c1
Prompt: Form: Sort by [Ki] Order [ ascending ] As an answer, provide the labels arranged in the order called for.
Completion: C, A, B

----------
molecular target: UniProt P30542; assay: Adenosine A1 Receptor Functional Assay (A1GAL2); settings: CHO-K1 cells overexpressing human A1 receptor, cAMP inducible beta-galactosidase reporter, 4 nM r-PIA/1 uM Forskolin agonist challenge; read-out: A1GAL2_v3 Ki
Sequence (P30542 whole entry): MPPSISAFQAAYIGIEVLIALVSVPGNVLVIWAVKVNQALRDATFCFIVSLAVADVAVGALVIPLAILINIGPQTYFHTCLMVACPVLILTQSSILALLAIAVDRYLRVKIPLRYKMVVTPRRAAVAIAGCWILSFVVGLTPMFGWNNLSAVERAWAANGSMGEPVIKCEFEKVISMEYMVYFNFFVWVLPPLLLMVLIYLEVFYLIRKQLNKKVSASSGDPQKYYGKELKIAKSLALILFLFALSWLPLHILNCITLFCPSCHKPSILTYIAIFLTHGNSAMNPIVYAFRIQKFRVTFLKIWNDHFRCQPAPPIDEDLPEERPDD
pKi: −log10 of the molar value.
Value kind: pKi

Prompt: Provide measured pKi on UniProt P30542 for N#Cc1cccc(-c2nc(N)c3cc(CCN4CCOCC4)sc3n2)c1 [Example 5] please.
Completion: 6.23

(I) N#Cc1cccc(-c2nc(N)c3cc([C@H](O)CN4CCOCC4)sc3n2)c1 [Example 6]
(II) C[C@@H]1CCC[C@H](C)N1C[C@@H](O)c1cc2c(N)nc(-c3cccc(C#N)c3)nc2s1 [Example 7]
(III) Nc1nc(-c2ncco2)nc2sc(CCN3CCOCC3)cc12 [Example 3]
(IV) Cc1ccc(-c2nc(N)c3cc(CC4CCCCC4)sc3n2)o1 [Example 1]
(V) Cc1csc(-c2nc(N)c3cc(CCN4CCOCC4)sc3n2)n1 [Example 4]
Prompt: Please list these compounds in decreasing order of pKi. I'd appreciate it if you listed the labels in the requested order.
Completion: I, II, V, IV, III
